Read-out: Potassium channel subfamily K member 1 (KCNK1), KCNK1 (gene 3775)
protocolDescription: LTEA_HepaRG_KCNK1: Life Technologies and Expression Analysis (LTEA) Assay for Potassium channel subfamily K member 1 (KCNK1) using HepaRG (AID 2283511)
cond: mRNA level, 48 h; actives raise or lower the signal
Calls of active or inactive are those of the source. Rule for the calls: active = hit-call score of the fitted dose curve at least 0.9, where 1 is the maximum; inactive = score below 0.9.
Outcome codes: active, inactive

> print(dat)
                                   compound  classlabel
1                   CCNc1nc(NC(C)C)nc(SC)n1    inactive
2  C1CC2OC2CC1C1CO1 (configuration not stated)    inactive
3                              CCCN(CCC)N=O    inactive
4          CCCCCCOC(=O)c1ccccc1C(=O)OCCCCCC    inactive
5   CCC(C)(CC)c1cc(NC(=O)c2c(OC)cccc2OC)on1    inactive
6                      CCCCCCCCCc1ccc(O)cc1    inactive
7  O=C(O)C(F)(F)C(F)(F)C(F)(F)C(F)(F)C(F)(F)C(F)(F)C(F)(F)C(F)(F)F      active

###

subjectOfTest: Retinoic acid receptor RXR-alpha (Homo sapiens)
protocolDescription: OT_NURR1_NURR1RXRa_0480: Odyssey Thera (OT) 8-hour HEK293T Protein Complementation Assay for Nurr1/retinoid X receptor (RXR) (AID 2283385)
Records with an inconclusive call do not appear. Calls of active or inactive are those of the source. How the source made its calls: active means hit-call score of the fitted dose curve at least 0.9, where 1 is the maximum; inconclusive means response in the unintended direction; inactive means score below 0.9.
Outcome codes: T (active), F (inactive)

> print(dat)
                            structurestring  classlabel
1  ClC1=C(Cl)[C@]2(Cl)[C@@H]3[C@H]4C[C@H]([C@@H]5O[C@H]45)[C@@H]3[C@@]1(Cl)C2(Cl)Cl           F
2       ClC(Cl)=C(c1ccc(Cl)cc1)c1ccc(Cl)cc1           T
3                              CCOCCOC(C)=O           F

###

protocolDescription: ATG_AP_2_CIS: Attagene CIS-FACTORIAL HepG2 Assay for human Activator Protein 2 (AP-2) (AID 2282932)
cond: HepG2 AP-2 cis-reporter, Attagene transcription factor profiling; actives raise or lower the signal
Active and inactive are the calls of the source. How the source made its calls: active means hit-call score of the fitted dose curve at least 0.9, where 1 is the maximum; inactive means score below 0.9.
Outcome codes: 1 = active, 0 = inactive

> print(dat)
                                    compound  classlabel
 1   CC(c1ccc(O)cc1)(c1ccc(O)cc1)c1ccc(O)cc1           1
 2                                  Nn1cnnc1           0
 3               Cc1cc(-c2ccc(N)c(C)c2)ccc1N           0
 4                  CCOP(=S)(OCC)SCSC(C)(C)C           0
 5                                 C=CC(N)=O           0
 6  O=C(O)C(F)(F)C(F)(F)C(F)(F)C(F)(F)C(F)(F)C(F)(F)C(F)(F)C(F)(F)F           0
 7  ClC1=C(Cl)[C@]2(Cl)[C@@H]3[C@@H]4C[C@@H]([C@H]5O[C@@H]45)[C@@H]3[C@@]1(Cl)C2(Cl)Cl           0
 8    CCOC(=O)C(O)(c1ccc(Cl)cc1)c1ccc(Cl)cc1           0
 9                                  OCC(O)CO           0
10                CC#Cc1cc(C)nc(Nc2ccccc2)n1           0
11                       c1ccc(-c2ccccc2)cc1           0
12                   Nc1ccc(-c2ccc(N)cc2)cc1           0
13  CC(C)C(=O)OCC(C)(C)C(OC(=O)C(C)C)C(C)C (stereo not given)           0
14   O=S(=O)(O)C(F)(F)C(F)(F)C(F)(F)C(F)(F)F           0
15  ClC1=C(Cl)[C@]2(Cl)[C@@H]3[C@H]4C[C@H]([C@@H]5O[C@H]45)[C@@H]3[C@@]1(Cl)C2(Cl)Cl           0

###

Read-out: urokinase plasminogen activator (uPA), PLAU (gene 5328)
protocolDescription: BSK_KF3CT_uPA: BioMAP Diversity Plus: KF3CT Assay for urokinase plasminogen activator (uPA) Biomarker Activity (AID 2283075)
cond: primary human keratinocytes with fibroblasts; actives raise or lower the signal
Method: BSK_KF3CT is a cell-based, multiplexed-readout assay that uses keratinocytes and foreskin fibroblasts, a human skin primary cell co-culture, with measurements taken at 24 hours after chemical dosing in a 96-well plate.BSK_KF3CTA is an assay component measured in the BSK_KF3CT assay. It measures uPA antibody related to regulation of gene expression using ELISA technology.Data from the assay component BSK_KF3CTA was analyzed into 1 assay endpoint. […]
Active and inactive are the calls of the source. How the source made its calls: active means hit-call score of the fitted dose curve at least 0.9, where 1 is the maximum; inactive means score below 0.9.
measuredMetric: outcome

> print(dat)
                             structurestring  measuredmetric  observedresult
 1  O=C(O)C(F)(F)C(F)(F)C(F)(F)C(F)(F)C(F)(F)C(F)(F)C(F)(F)C(F)(F)F         outcome        inactive
 2          CCCCCCOC(=O)c1ccccc1C(=O)OCCCCCC         outcome        inactive
 3                            Clc1ccc(Cl)cc1         outcome        inactive
 4                    O=NN(c1ccccc1)c1ccccc1         outcome        inactive
 5                                  CN(C)CCO         outcome        inactive
 6                   Cc1cccc([N+](=O)[O-])c1         outcome        inactive
 7                   COc1ccc(O)c(C(C)(C)C)c1         outcome        inactive
 8                                  Nn1cnnc1         outcome        inactive
 9  CO/C=C(/C(=O)OC)c1ccccc1COc1cccc(C(F)(F)F)n1         outcome        inactive
10  C[C@]12CCC(=O)C=C1CC[C@@H]1[C@@H]2CC[C@@]2(C)[C@H]1CC[C@]2(C)O         outcome        inactive
11      CCCCCCCCOC(=O)c1ccccc1C(=O)OCCCCCCCC         outcome        inactive
12  N#Cc1ccc(N(CC(N)=O)CC(F)(F)F)cc1C(F)(F)F         outcome        inactive
13            CCC(C)(c1ccc(O)cc1)c1ccc(O)cc1         outcome        inactive
14                   Clc1ccc(C(Cl)(Cl)Cl)cc1         outcome        inactive

###

Read-out: Cyclin Dependent Kinase Inhibitor 1A (CDKN1A), CDKN1A (gene 1026)
protocolDescription: LTEA_HepaRG_CDKN1A: Life Technologies and Expression Analysis (LTEA) Assay for Cyclin Dependent Kinase Inhibitor 1A (CDKN1A) using HepaRG (AID 2283450)
cond: mRNA level, 48 h; actives raise or lower the signal
Active and inactive are the calls of the source. Rule for the calls: active = hit-call score of the fitted dose curve at least 0.9, where 1 is the maximum; inactive = score below 0.9.
measuredMetric: outcome

> print(dat)
                            structurestring  measuredmetric  observedresult
1  O=S(=O)(O)C(F)(F)C(F)(F)C(F)(F)C(F)(F)C(F)(F)C(F)(F)F         outcome        inactive
2                  CCOP(=S)(OCC)SCSC(C)(C)C         outcome        inactive
3  Oc1ccc(C(c2ccc(O)cc2)(C(F)(F)F)C(F)(F)F)cc1         outcome        inactive

###

Read-out: Interleukin 6 (IL6), IL6 (gene 3569)
protocolDescription: LTEA_HepaRG_IL6: Life Technologies and Expression Analysis (LTEA) Assay for Interleukin 6 (IL6) using HepaRG (AID 2283509)
cond: mRNA level, 48 h; actives raise or lower the signal
The source made the active and inactive calls. Rule for the calls: active = hit-call score of the fitted dose curve at least 0.9, where 1 is the maximum; inactive = score below 0.9.
Outcome codes: yes = active, no = inactive

> print(dat)
                                    compound  classlabel
 1  CCC(C)c1cc([N+](=O)[O-])cc([N+](=O)[O-])c1O (stereo unspecified)         yes
 2   CCC(C)(CC)c1cc(NC(=O)c2c(OC)cccc2OC)on1          no
 3  ClC1=C(Cl)[C@]2(Cl)[C@@H]3[C@H]4C[C@H]([C@@H]5O[C@H]45)[C@@H]3[C@@]1(Cl)C2(Cl)Cl          no
 4                  CCOP(=S)(OCC)SCSC(C)(C)C          no
 5                   COc1ccc(O)c(C(C)(C)C)c1          no
 6            CCCCCCCCCC[N+](C)(C)CCCCCCCCCC         yes
 7                     CCSC(=O)N(CC)C1CCCCC1          no
 8                                  CN(C)CCO          no
 9                      CCCCCCCCCc1ccc(O)cc1          no
10  O=C(O)C(F)(F)C(F)(F)C(F)(F)C(F)(F)C(F)(F)C(F)(F)C(F)(F)C(F)(F)F         yes
11  Cc1ccccc1CO[C@@H]1C[C@@]2(C(C)C)CC[C@]1(C)O2          no
12  O=S(=O)(O)C(F)(F)C(F)(F)C(F)(F)C(F)(F)C(F)(F)C(F)(F)F          no
13  Oc1ccc(C(c2ccc(O)cc2)(C(F)(F)F)C(F)(F)F)cc1         yes
14  Cc1cc2c3c(c1)C(c1ccccc1)=N[C@@H](NC(=O)c1ccncc1)C(=O)N3CC2          no
15                     Cc1ccccc1[N+](=O)[O-]          no
16                              CCOCCOC(C)=O          no

Ref: PubChem BioAssay (EPA / NIEHS)
